# EXPERIMENTAL DETAILS: Pharmacokinetic studies IV, PO, IP
# Format: in vivo
# CONDITION CONTEXT: in vivo, po, 10 mg/kg; read-out: in vivo half-life in circulation
MEASUREMENT NAME: half-life
Entry format: amount then unit.

## Input Consider the molecule shown here: Cc1nn(-c2ccc3nnc(C)n3n2)c(C)c1CCC(=O)N1CCC(Cc2ccccc2)CC1 What is its recorded half-life?
## Output 2.12 h

* * *

# EXPERIMENTAL DETAILS: Pharmacokinetic studies IV, PO, IP
# Format: in vivo
# CONDITION CONTEXT: in vivo; IP administration, 10 mg/kg; read-out: in vivo half-life in circulation
MEASUREMENT NAME: half-life

## Input Record request: half-life value, item Cc1nn(-c2ccc3nnc(C)n3n2)c(C)c1CCC(=O)N1CCC(Cc2ccccc2)CC1 [Compound 3]
## Output 3.07 h

* * *

# EXPERIMENTAL DETAILS: Pharmacokinetic studies IV, PO, IP
# Type: in vivo
# CONDITION CONTEXT: in vivo, po; calculated; 10 mg/kg
MEASUREMENT NAME: bioavailability

## Input Give the measured bioavailability of Cc1nn(-c2ccc3nnc(C)n3n2)c(C)c1CCC(=O)N1CCC(Cc2ccccc2)CC1 .
## Output ~45%

* * *

The entries below come with measured IC50 values attached.
# TARGET OR SYSTEM: TRAF6-UBC13 interaction (Homo sapiens, UniProt Q9Y4K3)
# Construct: RING-Zincfinger1 (RZ1) domain (residues 50-159) of TRAF6 wildtype
# Sequence (Q9Y4K3 50-159): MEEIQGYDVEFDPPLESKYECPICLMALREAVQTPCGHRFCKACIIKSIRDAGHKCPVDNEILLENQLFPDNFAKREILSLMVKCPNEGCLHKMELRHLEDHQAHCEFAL
# EXPERIMENTAL DETAILS: ALPHAScreen TRAF6WTStrepII-Ubc13FH interaction assay
# CONDITION CONTEXT: inhibition of TRAF6-UBC13 interaction

Look over these answered cases.
>>> reading("Cc1nn(-c2ccc3nnc(C)n3n2)c(C)c1CCC(=O)NCc1ccccc1")
"≤ 30 µM"
>>> reading("COc1ccc(N2CCN(C(=O)CCc3c(C)nn(-c4ccc5nnc(C)n5n4)c3C)CC2)cc1")
"≤ 10 µM"
>>> reading("Cc1nn(-c2ccc3nnc(C)n3n2)c(C)c1CCC(=O)N1CCN(c2ccccn2)CC1")
"≤ 3 µM"
>>> reading("Cc1nn(-c2ccc3nnc(C)n3n2)c(C)c1CCC(=O)N1CCN(c2ccc(F)cc2)CC1")
"≤ 3 µM"
>>> reading("COc1ccc(N2CCN(C(=O)CCc3c(C)nn(-c4ccc5nncn5n4)c3C)CC2)cc1")
"≤ 10 µM"

## Input I'd like to know its IC50. The compound in question is Cc1nn(-c2ccc3nncn3n2)c(C)c1CCC(=O)N1CCC(Cc2ccccc2)CC1
## Output ≤ 30 µM

## Input Find the recorded IC50 belonging to Cc1nn(-c2ccc3nnc(C)n3n2)c(C)c1CCC(=O)NCCCc1ccccc1 and report it.
## Output ≤ 30 µM

## Input IC50 lookup needed for Cc1nn(-c2ccc3nnc(C)n3n2)c(C)c1CCC(=O)NCc1cccs1 , thanks.
## Output ≤ 30 µM

## Input Look up IC50 for this compound: Cc1nn(-c2ccc3nncn3n2)c(C)c1CCC(=O)N1CCN(c2ccccn2)CC1
## Output ≤ 10 µM

## Input Using the record for Cc1nn(-c2ccc3nnc(C)n3n2)c(C)c1CCC(=O)N1CCN(c2ccccc2F)CC1 , report its IC50.
## Output ≤ 30 µM

## Input Using the record for Cc1nn(-c2ccc3nnc(C)n3n2)c(C)c1CCC(=O)NCc1ccc(Cl)cc1 , report its IC50.
## Output ≤ 30 µM

## Input Which IC50 is listed for Cc1nn(-c2ccc3nncn3n2)c(C)c1CCC(=O)N1CCN(c2ccccc2)CC1 ?
## Output ≤ 10 µM

## Input So what does the record say about IC50 for Cc1ccc(C)c(N2CCN(C(=O)CCc3c(C)nn(-c4ccc5nnc(C)n5n4)c3C)CC2)c1 ?
## Output ≤ 30 µM

## Input Any idea what IC50 was measured for Cc1ccc(CNC(=O)CCc2c(C)nn(-c3ccc4nnc(C)n4n3)c2C)o1 ?
## Output ≤ 10 µM

## Input # input compound: COc1cccc(N2CCN(C(=O)CCc3c(C)nn(-c4ccc5nncn5n4)c3C)CC2)c1 ; wanted: its IC50
## Output ≤ 10 µM

## Input I'd like to know its IC50. The compound in question is Cc1nn(-c2ccc3nnc(C)n3n2)c(C)c1CCC(=O)NCCc1c[nH]c2ccccc12
## Output ≤ 30 µM

## Input # input compound: Cc1nn(-c2ccc3nnc(C)n3n2)c(C)c1CCC(=O)N1CCN(c2ccccc2)CC1 ; wanted: its IC50
## Output ≤ 3 µM

// provenance: patent US11001591B2
